Values were extracted from patent US20050148495A1.

experiment: in vivo; conditions: both, Sinclair mini-pig, minipig, plasma, iv, beta half-life, 0.05 or 2 mg/kg short IV infusion
Non-standard residues stand in square brackets, D forms with d. Residues, ends and D or L forms follow the SMILES beside them. d1Nal = N[C@H](Cc1cccc2ccccc12)C(=O)O
readoutLabel: half-life

# compound, assayResult
records = [
    ("CC(C)C[C@@H](NC(=O)[C@H](N)CCCCN)C(=O)N[C@H](Cc1ccccc1)C(=O)N[C@H](CCCNC(=N)N)C(=O)N[C@H](Cc1cccc2ccccc12)C(=O)N[C@H](CCC(N)=O)C(=O)N[C@H](C)C(=O)N[C@H](CCCCN)C(=O)N[C@H](Cc1cccc2ccccc12)C(N)=O [XMP.629] (H-[dK][dL][dF][dR][d1Nal][dQ][dA][dK][d1Nal]-NH2)", "1 to 1.3 h"),
]

* * *

assay: in vivo; conditions: both, Sprague-Dawley, rat, plasma, iv, 0.2 mg/kg, t1/2 (average half-life), non-labeled XMP.629, 0.2 mg/kg intravenous, mean
Non-standard residues stand in square brackets, D forms with d. Residues, ends and D or L forms follow the SMILES beside them. d1Nal = N[C@H](Cc1cccc2ccccc12)C(=O)O
readoutLabel: half-life

# compound, assayResult
rows = [
    ("CC(C)C[C@@H](NC(=O)[C@H](N)CCCCN)C(=O)N[C@H](Cc1ccccc1)C(=O)N[C@H](CCCNC(=N)N)C(=O)N[C@H](Cc1cccc2ccccc12)C(=O)N[C@H](CCC(N)=O)C(=O)N[C@H](C)C(=O)N[C@H](CCCCN)C(=O)N[C@H](Cc1cccc2ccccc12)C(N)=O [XMP.629] (H-[dK][dL][dF][dR][d1Nal][dQ][dA][dK][d1Nal]-NH2)", "26.4 min"),
]

* * *

experiment: in vivo; conditions: both, Sinclair mini-pig, minipig, plasma, iv, terminal half-life, 0.05 or 2 mg/kg short IV infusion
Non-standard residues stand in square brackets, D forms with d. Residues, ends and D or L forms follow the SMILES beside them. d1Nal = N[C@H](Cc1cccc2ccccc12)C(=O)O

# molecule, half-life
data = [
    ("CC(C)C[C@@H](NC(=O)[C@H](N)CCCCN)C(=O)N[C@H](Cc1ccccc1)C(=O)N[C@H](CCCNC(=N)N)C(=O)N[C@H](Cc1cccc2ccccc12)C(=O)N[C@H](CCC(N)=O)C(=O)N[C@H](C)C(=O)N[C@H](CCCCN)C(=O)N[C@H](Cc1cccc2ccccc12)C(N)=O [XMP.629] (H-[dK][dL][dF][dR][d1Nal][dQ][dA][dK][d1Nal]-NH2)", "~900 min"),
]

* * *

experiment: in vivo; conditions: both, rat, plasma, po, 10 mg/kg, Tmax, 10 mg/kg XMP.629 acetate oral gavage in 5% glucose, mean
Non-standard residues stand in square brackets, D forms with d. Residues, ends and D or L forms follow the SMILES beside them. d1Nal = N[C@H](Cc1cccc2ccccc12)C(=O)O

# molecule, Tmax
data = [
    ("CC(C)C[C@@H](NC(=O)[C@H](N)CCCCN)C(=O)N[C@H](Cc1ccccc1)C(=O)N[C@H](CCCNC(=N)N)C(=O)N[C@H](Cc1cccc2ccccc12)C(=O)N[C@H](CCC(N)=O)C(=O)N[C@H](C)C(=O)N[C@H](CCCCN)C(=O)N[C@H](Cc1cccc2ccccc12)C(N)=O [XMP.629] (H-[dK][dL][dF][dR][d1Nal][dQ][dA][dK][d1Nal]-NH2)", "11.4 min"),
]

* * *

assay: in vivo; conditions: both, Sprague-Dawley, rat, plasma, iv, 0.2 mg/kg
Non-standard residues stand in square brackets, D forms with d. Residues, ends and D or L forms follow the SMILES beside them. d1Nal = N[C@H](Cc1cccc2ccccc12)C(=O)O

# compound, clearance [mL/min/kg]
data = [
    ("CC(C)C[C@@H](NC(=O)[C@H](N)CCCCN)C(=O)N[C@H](Cc1ccccc1)C(=O)N[C@H](CCCNC(=N)N)C(=O)N[C@H](Cc1cccc2ccccc12)C(=O)N[C@H](CCC(N)=O)C(=O)N[C@H](C)C(=O)N[C@H](CCCCN)C(=O)N[C@H](Cc1cccc2ccccc12)C(N)=O [XMP.629] (H-[dK][dL][dF][dR][d1Nal][dQ][dA][dK][d1Nal]-NH2)", 5.32),
]

* * *

assay: in vivo; details: both, rat, plasma, po, 10 mg/kg, Cmax, 10 mg/kg XMP.629 acetate oral gavage in 5% glucose, mean
Non-standard residues stand in square brackets, D forms with d. Residues, ends and D or L forms follow the SMILES beside them. d1Nal = N[C@H](Cc1cccc2ccccc12)C(=O)O

# molecule, Cmax, ng/mL
records = [
    ("CC(C)C[C@@H](NC(=O)[C@H](N)CCCCN)C(=O)N[C@H](Cc1ccccc1)C(=O)N[C@H](CCCNC(=N)N)C(=O)N[C@H](Cc1cccc2ccccc12)C(=O)N[C@H](CCC(N)=O)C(=O)N[C@H](C)C(=O)N[C@H](CCCCN)C(=O)N[C@H](Cc1cccc2ccccc12)C(N)=O [XMP.629] (H-[dK][dL][dF][dR][d1Nal][dQ][dA][dK][d1Nal]-NH2)", 4.6),
]

* * *

test system: Staphylococcus aureus; conditions: Staphylococcus aureus 342U-116
Items are presented alongside their recorded MBC (antibiotic alone).
readoutLabel: MBC (antibiotic alone) (µg/mL)

# compound, readoutLabel, u, prefixOperator, assayResult
data = [
    ("CC(=O)OCC1=C(C(=O)O)N2C(=O)[C@@H](NC(=O)Cc3cccs3)[C@H]2SC1", "MBC (antibiotic alone)", "µg/mL", "=", 1),
    ("Cc1onc(-c2ccccc2)c1C(=O)N[C@@H]1C(=O)N2[C@@H]1SC(C)(C)[C@@H]2C(=O)O", "MBC (antibiotic alone)", "µg/mL", "=", 1),
    ("CC1(C)S[C@@H]2[C@H](NC(=O)[C@H](N)c3ccccc3)C(=O)N2[C@H]1C(=O)O", "MBC (antibiotic alone)", "µg/mL", "=", 8),
    ("CO/N=C(\\C(=O)N[C@@H]1C(=O)N2C(C(=O)O)=C(CSc3nc(=O)c(=O)[nH]n3C)CS[C@H]12)c1csc(N)n1", "MBC (antibiotic alone)", "µg/mL", ">", 4),
    ("CC1COc2c(N3CCN(C)CC3)c(F)cc3c(=O)c(C(=O)O)cn1c23 (centres unmarked)", "MBC (antibiotic alone)", "µg/mL", "=", 1),
]

* * *

assay: in vivo; settings: both, Sinclair mini-pig, minipig, plasma, iv
Non-standard residues stand in square brackets, D forms with d. Residues, ends and D or L forms follow the SMILES beside them. d1Nal = N[C@H](Cc1cccc2ccccc12)C(=O)O

# compound, Vd
records = [
    ("CC(C)C[C@@H](NC(=O)[C@H](N)CCCCN)C(=O)N[C@H](Cc1ccccc1)C(=O)N[C@H](CCCNC(=N)N)C(=O)N[C@H](Cc1cccc2ccccc12)C(=O)N[C@H](CCC(N)=O)C(=O)N[C@H](C)C(=O)N[C@H](CCCCN)C(=O)N[C@H](Cc1cccc2ccccc12)C(N)=O [XMP.629] (H-[dK][dL][dF][dR][d1Nal][dQ][dA][dK][d1Nal]-NH2)", "0.067 to 0.102 L/kg"),
]

* * *

experiment: physchem; settings: transcutol P
Non-standard residues stand in square brackets, D forms with d. Residues, ends and D or L forms follow the SMILES beside them. d1Nal = N[C@H](Cc1cccc2ccccc12)C(=O)O

# compound, solubility
records = [
    ("CC(C)C[C@@H](NC(=O)[C@H](N)CCCCN)C(=O)N[C@H](Cc1ccccc1)C(=O)N[C@H](CCCNC(=N)N)C(=O)N[C@H](Cc1cccc2ccccc12)C(=O)N[C@H](CCC(N)=O)C(=O)N[C@H](C)C(=O)N[C@H](CCCCN)C(=O)N[C@H](Cc1cccc2ccccc12)C(N)=O [XMP.629 acetate] (H-[dK][dL][dF][dR][d1Nal][dQ][dA][dK][d1Nal]-NH2)", "< 170 µg/mL"),
]

* * *

test: in vivo; conditions: both, Sprague-Dawley, rat, plasma, intravenous, 0.2 mg/kg, terminal half-life, two compartment model
Non-standard residues stand in square brackets, D forms with d. Residues, ends and D or L forms follow the SMILES beside them. d1Nal = N[C@H](Cc1cccc2ccccc12)C(=O)O
readoutLabel: half-life

# compound, assayResult
data = [
    ("CC(C)C[C@@H](NC(=O)[C@H](N)CCCCN)C(=O)N[C@H](Cc1ccccc1)C(=O)N[C@H](CCCNC(=N)N)C(=O)N[C@H](Cc1cccc2ccccc12)C(=O)N[C@H](CCC(N)=O)C(=O)N[C@H](C)C(=O)N[C@H](CCCCN)C(=O)N[C@H](Cc1cccc2ccccc12)C(N)=O [XMP.629] (H-[dK][dL][dF][dR][d1Nal][dQ][dA][dK][d1Nal]-NH2)", "~16 h"),
]
